test system: THP-1 cells; assay: Toxic dose assay, viable cell count by trypan blue exclusion at day seven; type: cell-based; details: seven days of treatment, duplicate runs, read-out: IC50 (dose at which the number of viable cells in the treated sample was 50% of that in the control at day seven)
Assay endpoint: pIC50
Note: pIC50 values are expressed as the negative base-10 logarithm of concentration in M.

Challenge: Recall and state the measured pIC50 for `Cn1cncc1[C@@](N)(c1ccc(Cl)cc1)c1ccc2c(c1)c(-c1cccc(Cl)c1)cc(=O)n2C` .
Response given: 7.72

* * *

Tested on: U-937 cells
Assay: Toxic dose assay, viable cell count by trypan blue exclusion at day seven
Assay type: cell-based
Conditions: seven days of treatment, duplicate runs, read-out: IC50 (dose at which the number of viable cells in the treated sample was 50% of that in the control at day seven)
Description: The AML-like cell lines HL-60 (promyelocytic) and U-937 (promonocytic) were obtained from the ATCC. AML-193 (monocytic) and THP-1 (monocytic) cells were obtained from the RW Johnson Pharmaceutical Research Center, San Diego. […] The cells of Example 1 were inoculated into 6-well plates at an initial concentration of 1×10^5 cells/ml. […] Cell numbers were counted at days four and seven in a hemocytometer and cell viability was determined by trypan blue exclusion assay. […]
Assay endpoint: pIC50
Note: pIC50 values are expressed as the negative base-10 logarithm of concentration in M.

Challenge: Recall and state the measured pIC50 for `Cn1cncc1[C@@](N)(c1ccc(Cl)cc1)c1ccc2c(c1)c(-c1cccc(Cl)c1)cc(=O)n2C` .
Response given: 7.36

Reference source: patent US20070048782A1
